- System: TRPC4 (mouse), co-expressed with 5HT1a in HEK293
- ASSAY EXPLANATION: enhancement of serotonin-evoked TRPC4 response – cell-based, second counter screen, HEK293 TRPC4/5HT1a, Fluo-4, counter-screen for TRPC4 potentiator project, confirmation (AID 434979)
- CONDITION SUMMARY: Fluo-4 calcium flux, at 10 µM, serotonin added at its EC20 dose
Calls of active or inactive are those of the source.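 The calls were made as follows: active = signal rise over 3 SD above mean of control wells given weak agonist, in both repeats and first screen; inactive = the rest.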
Can you answer with just one of these options? active, inactive

MOLECULE: Cc1ccc(Nc2cc(C)nc3c(C)cccc23)cc1
DISCRETE LABEL: inactive

MOLECULE: Cc1ccc(C(=O)NNC(=O)C2CSC3(C)CCC(=O)N23)cc1 (centres undefined)
DISCRETE LABEL: active

MOLECULE: COCC(C)NC(C(=O)Nc1ccc(Cl)c([N+](=O)[O-])c1)c1ccccc1 (centres undefined)
DISCRETE LABEL: inactive

stdin: Outcome logged for COc1ccccc1/C=C/CN1CCCC(CCC(=O)NCc2ccc(F)c(F)c2)C1 (centres undefined) in this assay:
stdout: inactive

stdin: Outcome logged for O=C1c2ccccc2S(=O)(=O)c2cc(C(=O)N(c3ccccn3)c3ccccn3)ccc21 in this assay:
stdout: inactive

---

- EXPERIMENTAL SYSTEM: Inward rectifier potassium channel 2 (Mus musculus)
- ASSAY EXPLANATION: inhibition of Kir2.1 inward rectifier potassium flux – cell-based, FluxOR thallium flux, duplicate, confirmation (AID 2032)
- CONDITION SUMMARY: Kir2.1-expressing cells, FluxOR thallium flux fluorescence, at 10 µM
Some of the results follow. The source made the active and inactive calls.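 How the source made its calls: active means Primary-screen hit whose thallium flux fell at least 3 control SD below untreated wells in both duplicates, with normal baseline fluorescence; inactive means the rest.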
Can you answer with just one of these options? active, inactive

Solved cases (10 shown):
COMPOUND: Clc1c(OCCCn2ccnc2)ccc2ccccc12
DISCRETE LABEL: inactive

COMPOUND: COc1ccccc1CCNS(=O)(=O)c1cc2c3c(c1)C(C)C(=O)N3CCC2 (configuration not stated)
DISCRETE LABEL: active

COMPOUND: c1ccc(CSc2nnc(-c3ccco3)n2Cc2ccccc2)cc1
DISCRETE LABEL: active

COMPOUND: CC(C)(c1ccccc1)c1ccc(OCCN2CCCC2)cc1
DISCRETE LABEL: active

COMPOUND: Clc1cccc(Cl)c1OCCOCCNCc1ccccc1
DISCRETE LABEL: active

COMPOUND: Cc1nnc(SCc2ccc(C(=O)c3ccc(Cl)cc3)o2)n1-c1ccccc1
DISCRETE LABEL: active

COMPOUND: Cc1ccccc1C(=O)NCCN=C1NS(=O)(=O)c2ccccc21
DISCRETE LABEL: inactive

COMPOUND: COc1ccc(F)c(-c2nc(CN3CCC(c4ccccc4)CC3)c(C)o2)c1
DISCRETE LABEL: active

COMPOUND: Cc1ccc(Nc2c3c(nc4ccccc24)CCC3)cc1
DISCRETE LABEL: active

COMPOUND: OCCNCc1cccc(OCc2ccccc2Cl)c1
DISCRETE LABEL: active

stdin: Outcome logged for O=C(NCc1ccc2c(c1)OCO2)C12CC3CC(CC(C3)C1)C2 in this assay:
stdout: inactive

stdin: Outcome logged for Cc1cc(C)nc(SCc2nnc(SCC(=O)OC3CCCCC3)o2)n1 in this assay:
stdout: active

stdin: Outcome logged for FC(F)(F)c1cccc(NC(=S)Nc2cccc(Cl)c2)c1 in this assay:
stdout: inactive

stdin: Outcome logged for COCCNC(=O)COc1ccc(N(C)S(=O)(=O)c2ccc3ccccc3c2)cc1 in this assay:
stdout: active

stdin: Outcome logged for CS(=O)(=O)c1sc(C(=O)NC(=S)Nc2ccc(OC(F)(F)F)cc2)c2c1C=CCC2 in this assay:
stdout: inactive

stdin: Outcome logged for CCc1ccccc1NC(=O)[C@@H]1CCC(=O)N1C1OC(=O)c2c1ccc(OC)c2OC (some centres not stated) in this assay:
stdout: inactive

stdin: Outcome logged for CCCCCCCCCCOC(=O)Cn1c(COc2ccc(C)cc2)[n+](C)c2ccccc21 in this assay:
stdout: inactive

---

- EXPERIMENTAL SYSTEM: Short transient receptor potential channel 4 (Mus musculus)
- ASSAY EXPLANATION: blockers of DAMGO-evoked TRPC4 calcium flux – cell-based, second round, Fluo4, HEK293 TRPC4beta/mu-opioid, 1 µM, confirmation (AID 2637);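 also: percent of integrated ratio relative to wells lacking test compound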
- CONDITION SUMMARY: at 1 µM; hits give high values
Catalogue of inhibition readings, one per entry.
Respond with the bare value in %.

RECORD SMILES: Cc1ccc(N2CCN(C(=O)c3ccccc3F)CC2)c(C)c1
EXPERIMENTAL SYSTEM: Short transient receptor potential channel 4 (Mus musculus)
UOM: %
ASSAY VALUE: 41

stdin: Look up inhibition: O=[N+]([O-])c1cccc(-c2nnc(C3CC3)o2)c1
stdout: 38

stdin: Look up inhibition: FC(F)Oc1ccccc1NC(=S)Nc1cccc(Cl)c1Cl
stdout: 45

---

- System: transient receptor potential cation channel C4 beta (TRPC4), mouse
- ASSAY EXPLANATION: TRPC4 cation channel opening, second retest – cell-based, second round, Fluo4, HEK293 TRPC4beta/mu-opioid, 1 µM, confirmation (AID 2461)
- CONDITION SUMMARY: Fluo4 calcium fluorescence, at 1 µM
Activity calls are given as the source filed them.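 Rule for the calls: active = primary screen active and over 50% activation in each of two duplicate runs; inactive = the rest.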
Can you answer with just one of these options? yes for active, no for inactive

stdin: Outcome logged for C(#Cc1ccccc1)C[N+]1(CC#Cc2cccc3ccccc23)CCCC1 in this assay:
stdout: no

stdin: Outcome logged for CC(C)NS(=O)(=O)c1ccc(NC(=O)C(C)Oc2ccc(C(=O)c3ccccc3)cc2)cc1 (stereo not given) in this assay:
stdout: no

stdin: Outcome logged for Cc1ccc(C)c(N(CC(=O)NC2CCCC2)C(=O)c2csnn2)c1 in this assay:
stdout: no

stdin: Outcome logged for Cc1cccc(-n2ccnc2CN2CCC(CO)(Cc3ccccc3)CC2)c1 in this assay:
stdout: no

stdin: Outcome logged for CCCN(CCC)CCNC(=O)CCC(=O)Nc1ccc2nc(N3CCOCC3)cc(C)c2c1 in this assay:
stdout: yes

---

- EXPERIMENTAL SYSTEM: Short transient receptor potential channel 4 (Mus musculus) (UniProt Q9QUQ5)
- Sequence (Q9QUQ5 whole entry, looked up): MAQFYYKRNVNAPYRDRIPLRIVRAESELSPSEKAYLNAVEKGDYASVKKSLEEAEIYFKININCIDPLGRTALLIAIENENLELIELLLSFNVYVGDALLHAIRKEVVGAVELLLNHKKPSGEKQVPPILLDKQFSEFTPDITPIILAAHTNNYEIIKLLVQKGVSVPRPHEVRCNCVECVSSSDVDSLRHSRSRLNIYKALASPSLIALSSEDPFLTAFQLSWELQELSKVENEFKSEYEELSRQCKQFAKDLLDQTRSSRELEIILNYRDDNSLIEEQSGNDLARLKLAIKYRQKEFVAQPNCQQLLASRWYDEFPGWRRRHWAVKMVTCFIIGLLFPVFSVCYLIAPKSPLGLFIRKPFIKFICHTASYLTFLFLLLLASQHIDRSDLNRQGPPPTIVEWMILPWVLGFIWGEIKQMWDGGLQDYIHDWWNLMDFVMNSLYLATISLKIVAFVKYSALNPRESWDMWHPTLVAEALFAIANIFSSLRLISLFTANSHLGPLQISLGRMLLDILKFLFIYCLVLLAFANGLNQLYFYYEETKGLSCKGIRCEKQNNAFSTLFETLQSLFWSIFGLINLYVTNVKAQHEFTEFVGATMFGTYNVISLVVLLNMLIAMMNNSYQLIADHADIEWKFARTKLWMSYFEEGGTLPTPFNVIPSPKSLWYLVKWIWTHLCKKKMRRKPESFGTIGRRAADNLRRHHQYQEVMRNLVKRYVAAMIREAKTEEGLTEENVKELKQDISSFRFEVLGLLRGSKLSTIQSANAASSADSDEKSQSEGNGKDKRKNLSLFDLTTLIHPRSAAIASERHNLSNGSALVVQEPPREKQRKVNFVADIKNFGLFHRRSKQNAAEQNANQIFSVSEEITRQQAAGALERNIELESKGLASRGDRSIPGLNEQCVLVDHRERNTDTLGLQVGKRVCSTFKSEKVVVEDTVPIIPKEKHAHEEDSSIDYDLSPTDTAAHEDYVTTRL
- ASSAY EXPLANATION: calcium flux activators in TRPC4/5HT1a cells, counter-screen for TRPC4 activator project, cell-based, second counter screen, HEK293 TRPC4/5HT1a, Fluo-4 (AID 434977)
- CONDITION SUMMARY: Fluo-4 calcium flux, at 10 µM
Activity calls are given as the source filed them.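 The calls were made as follows: active = calcium signal rise above buffer-control mean plus 5 SD in both duplicates, and also a hit in the primary screen; inactive = the rest.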
Can you answer with just one of these options? active, inactive

MOLECULE: CN1CCCC(OC(=O)c2cc(Br)ccc2Cl)C1 (stereo not drawn)
DISCRETE LABEL: active
//
MOLECULE: CCCCCCCCCCOC(=O)Cn1c(COc2ccccc2)[n+](C)c2ccccc21
DISCRETE LABEL: inactive
//
MOLECULE: O/N=C/c1cn(-c2ccccc2)nc1-c1ccc2c(c1)OCCO2
DISCRETE LABEL: inactive
//
MOLECULE: CCc1c(C(=O)N2CCCN(C)CC2)csc1C
DISCRETE LABEL: inactive
//
MOLECULE: CCCNCc1cc(Br)ccc1OCC(=O)NCCc1ccccc1
DISCRETE LABEL: inactive
//
MOLECULE: CCN1CCN(c2c(Cl)cccc2NC(=O)c2ccc([N+](=O)[O-])cc2)CC1
DISCRETE LABEL: active

stdin: Outcome logged for O=C(Nc1ccc([N+](=O)[O-])cn1)C1CCCCC1 in this assay:
stdout: inactive

stdin: Outcome logged for CCOc1ccc(Br)cc1/C=N/O in this assay:
stdout: inactive

stdin: Outcome logged for Cc1ccccc1C(=O)NNC(=S)NC(=O)COc1ccccc1 in this assay:
stdout: active

stdin: Outcome logged for Cc1cc(N2CCCCC2)nc2ccccc12 in this assay:
stdout: inactive

stdin: Outcome logged for Cc1nc2scc(-c3ccccc3)c2c(=O)n1N=C1C=CC(=O)C=C1 in this assay:
stdout: inactive

stdin: Outcome logged for CN1CCC(=O)N([C@H](CSc2ccc(Br)cc2)Cc2ccccc2)CC1 in this assay:
stdout: inactive

stdin: Outcome logged for CN1CCN(c2nc(-c3cccnc3)nc3scc(-c4ccccc4)c23)CC1 in this assay:
stdout: inactive

stdin: Outcome logged for Clc1ccc(COc2ccccc2CNCc2cccnc2)cc1 in this assay:
stdout: inactive

stdin: Outcome logged for O=C(OCC(=O)N1CCc2ccccc2C1)c1cccc([N+](=O)[O-])c1 in this assay:
stdout: inactive

---

- ASSAY EXPLANATION: serotonin-gated TRPC4 signal block – cell-based, second counter screen, HEK293 TRPC4/5HT1a, Fluo-4, counter-screen for TRPC4 inhibitor project, confirmation (AID 434978)
- CONDITION SUMMARY: Fluo-4 calcium flux, at 10 µM, serotonin added to trigger calcium flux
Active and inactive are the calls of the source.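 The calls were made as follows: active = primary screen active whose calcium signal fell more than 3 SD beyond the full-serotonin control mean in both duplicate plates; inactive = the rest.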
Can you answer with just one of these options? active, inactive

MOLECULE: Clc1ccc2nc(CN3CCCc4ccccc43)cn2c1
DISCRETE LABEL: inactive
//
MOLECULE: Cc1ccc(CSc2nnc(-c3cccc(S(=O)(=O)N4CCOCC4)c3)n2C2CCCC2)cc1
DISCRETE LABEL: inactive
//
MOLECULE: COc1ccc(C(CNc2nc(-c3cccnc3)nc3ccccc23)N(C)C)cc1 (configuration not stated)
DISCRETE LABEL: inactive
//
MOLECULE: CC1(C)CC2CC(C)(CN2CC(O)COc2ccccc2)C1 (configuration not stated)
DISCRETE LABEL: inactive

stdin: Outcome logged for COCC(C)NC(C(=O)Nc1ccc(Cl)c([N+](=O)[O-])c1)c1ccccc1 (configuration not stated) in this assay:
stdout: inactive

stdin: Outcome logged for c1ccc(Cn2c(CN3CCCC3)nc3ccccc32)cc1 in this assay:
stdout: active

stdin: Outcome logged for N#Cc1ccc(-c2ccccc2)nc1SCCN1CCOCC1 in this assay:
stdout: inactive

stdin: Outcome logged for COc1ccc(-c2cc(C(=O)N3CC(C)CC(C)C3)c3ccccc3n2)cc1 (configuration not stated) in this assay:
stdout: inactive

stdin: Outcome logged for CCCNc1nc2ccccc2n2c(C)nnc12 in this assay:
stdout: inactive

stdin: Outcome logged for O=C(CC1C(=O)NCCN1Cc1cccc(Oc2ccccc2)c1)NCCc1ccccn1 (configuration not stated) in this assay:
stdout: inactive

stdin: Outcome logged for CN(C)C(CNC(=O)c1cccc(S(=O)(=O)N(C)C)c1)c1ccccc1 (configuration not stated) in this assay:
stdout: inactive

stdin: Outcome logged for COc1ccc(-n2cc(CNCc3cnc4ccccn34)c(-c3cccc(F)c3)n2)cc1 in this assay:
stdout: inactive

stdin: Outcome logged for COc1ccc(C2C(O)C(c3c[nH]c4ccccc34)=NN2C(=O)CCl)cc1 (configuration not stated) in this assay:
stdout: inactive

stdin: Outcome logged for c1ccc2[nH]c(CCCCc3nc4ccccc4[nH]3)nc2c1 in this assay:
stdout: active

stdin: Outcome logged for COc1ccc(N/C(C)=C2/C(=O)C(=O)N(CCO)C2c2ccc([N+](=O)[O-])cc2)cc1 (configuration not stated) in this assay:
stdout: inactive
